B1: tRNA (parent)
chain: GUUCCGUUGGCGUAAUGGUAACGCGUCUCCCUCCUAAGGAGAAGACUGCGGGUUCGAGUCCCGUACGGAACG

variants of: B1; test: yeast fitness relative to wild type (ratio to wild type); higher = fitter; tRNA-Arg(CCU), competitive growth, 37 C, YPD
This sample holds only a part of the variants without activity.
yeast fitness values, listed per item
Form rule: numeric answer, no unit written next to it.

mutationdescriptor="C61A A69G" readoutkind="yeast fitness" assayresult=0.584
mutationdescriptor="G6C A21G C30G A37U" readoutkind="yeast fitness" assayresult=0.566
mutationdescriptor="G6A C46A" readoutkind="yeast fitness" assayresult=0.97
mutationdescriptor="A15U C31U A36G" readoutkind="yeast fitness" assayresult=0.568

# next variant below
# input variant: G50A C61U ; wanted: its yeast fitness
0.863
